target: ERα protein (HiBiT-tagged) in ESR1_HiBiT KI MCF7 cells (Homo sapiens, UniProt P03372); test: Nano Glo HiBiT Lytic Degradation Assay; format: cell-based; conditions: 6 hours with compound, 14-point dose response 1:3, bell-shape curve fit, half-maximal effect of first Hill model, read-out: MCF7 ESR1 HiBiT - (DC50)
REPORTED_METRIC: DC50 (nM)

1) O=C1CC[C@H](N2Cc3cc(N4CCN(CC5CCN(c6ccc([C@H]7c8ccc(O)cc8CC[C@H]7C7CCOCC7)cc6)CC5)CC4)ccc3C2=O)C(=O)N1    173
2) CN(CC1CCN(c2ccc([C@@H]3c4ccc(O)cc4CC[C@@H]3c3ccccc3)cc2)CC1)C1CN(c2ccc3c(c2)CN(C2CCC(=O)NC2=O)C3=O)C1 (single isomer, unassigned)    21

----------
target: ERα protein (HiBiT-tagged) in ESR1_HiBiT KI MCF7 cells (Homo sapiens); test: Nano Glo HiBiT Lytic Degradation Assay; format: cell-based; conditions: 6 hours with compound, 14-point dose response 1:3, bell-shape curve fit, half-maximal effect of first Hill model, read-out: MCF7 ESR1 HiBiT - (DC50)
REPORTED_METRIC: DC50 (nM)

1) O=C1CC[C@@H](N2Cc3cc(N4CCN(CC5CCN(c6ccc([C@@H]7c8ccc(O)cc8C(F)(F)C[C@@H]7c7ccc(F)cc7)cc6)CC5)CC4)ccc3C2=O)C(=O)N1    5.74
2) O=C1CC[C@H](N2Cc3cc(N4CCN(CC5CCN(c6ccc([C@H]7c8ccc(O)cc8C(F)(F)C[C@H]7c7ccccc7)cc6)CC5)CC4)ccc3C2=O)C(=O)N1    13
3) CC1(C)CCC([C@@H]2CCc3cc(O)ccc3[C@@H]2c2ccc(N3CCC(CN4CCN(c5ccc6c(c5)CN([C@H]5CCC(=O)NC5=O)C6=O)CC4)CC3)cc2)CC1 (single isomer, unassigned)    1030

----------
Target: ERα protein (HiBiT-tagged) in ESR1_HiBiT KI MCF7 cells (Homo sapiens)
Sequence (P03372 1-595): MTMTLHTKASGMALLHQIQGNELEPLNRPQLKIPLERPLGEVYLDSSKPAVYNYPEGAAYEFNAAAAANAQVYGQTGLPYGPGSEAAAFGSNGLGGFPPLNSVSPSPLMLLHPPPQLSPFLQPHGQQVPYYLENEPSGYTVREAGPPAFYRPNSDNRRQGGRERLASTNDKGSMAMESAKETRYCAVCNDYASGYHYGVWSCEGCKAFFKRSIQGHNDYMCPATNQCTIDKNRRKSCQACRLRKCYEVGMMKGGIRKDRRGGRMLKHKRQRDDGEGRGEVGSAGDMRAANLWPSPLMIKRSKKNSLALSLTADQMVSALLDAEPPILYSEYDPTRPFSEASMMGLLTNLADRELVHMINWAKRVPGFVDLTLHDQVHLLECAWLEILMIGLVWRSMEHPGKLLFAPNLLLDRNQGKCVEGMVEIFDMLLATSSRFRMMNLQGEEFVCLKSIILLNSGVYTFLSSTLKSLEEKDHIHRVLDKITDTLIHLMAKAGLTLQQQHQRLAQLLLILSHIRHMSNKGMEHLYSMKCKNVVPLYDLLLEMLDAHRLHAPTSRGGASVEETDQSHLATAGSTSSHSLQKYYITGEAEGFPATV
Test: Nano Glo HiBiT Lytic Degradation Assay
Type: cell-based
Conditions: 6 hours with compound, 14-point dose response 1:3, bell-shape curve fit, half-maximal effect of first Hill model, read-out: MCF7 ESR1 HiBiT - (DC50)
// reported DC50 per item
REPORTED_METRIC: DC50 (nM)

1) Cc1cc([C@@H]2CCc3cc(O)ccc3[C@@H]2c2ccc(N3CCC(CN4CCN(c5ccc6c(c5)CN([C@H]5CCC(=O)NC5=O)C6=O)CC4)CC3)cc2)n(C)n1 (single isomer, unassigned)    0.02
2) O=C1CC[C@H](N2Cc3cc(N4CCN(CCC5CCN(c6ccc([C@@H]7c8ccc(O)cc8CC[C@@H]7c7ccccc7)cc6)CC5)CC4)ccc3C2=O)C(=O)N1    0.79
